# Assayed Target: Glucocorticoid receptor (Homo sapiens)
# Test Summary: GR-GFP Redistribution (AID 450); note: potency is the fitted concentration of half-maximal effect
# Assay Conditions: U2OS GR-GFP nuclear translocation, laser cytometry, 2 h
Active and inactive are the calls of the source.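 Rule for the calls: active = compounds whose dose series gives a full or clear partial fitted curve of increased nuclear translocation; inconclusive = weak partial curve or effect only at the top dose; inactive = no dose-dependent translocation response.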
Hi there, I'd appreciate the recorded Potency for every entry that follows.

| Smiles Record | Result |
| --- | --- |
| NCCNCC1CCNCC1 | > 46 µM (inactive) |
| O=C1c2ccccc2-c2ccc(N=[N+]([O-])c3ccc4c(c3)C(=O)c3ccccc3-4)cc21 | > 46 µM (inactive) |
| COc1cccc(Nc2ncc3nc(CCc4ccccc4)c(=O)n(C[C@H]4CCCO4)c3n2)c1 | > 9.22 µM (inactive) |
| Clc1cc2c(c(CSC3=NCN(CC4CC4)CN3)c1)OCOC2 | > 46 µM (inactive) |
| Cn1c(=O)c2c(nc(NCCNc3nc4c(c(=O)n(C)c(=O)n4C)n3C)n2C)n(C)c1=O | > 46 µM (inactive) |

// switching to the query molecule
Q. What value of Potency has been reported for the following molecule? C[N+](C)(C)CC(=O)N/N=C\c1ccncc1
A. > 46 µM (inactive)

====

Hi there, I'd appreciate the recorded Potency for every entry that follows.
# Test Summary: qHTS Assay for Identification of Small Molecule Antagonists for Thrombopoietin (TPO) Signaling Pathway (AID 918); note: potency is the fitted concentration of half-maximal effect; nearly all actives have a fitted effect of over 60% in size
# Assay Conditions: TPO-dependent cell signaling reporter, antagonist mode
Results filed as inconclusive are left out. Calls of active or inactive are those of the source. Calls come from the whole dose curve; as a rule, active = well fitted inhibition curve with a large enough effect; inconclusive = small, poorly fitted or top-dose-only effect, or effect the other way, or another doubt; inactive = flat fitted curve, though single readings scatter.

Example results:
| Smiles Record | Assay Endpoint | Result |
| --- | --- | --- |
| CC(C)(C)[C@@]1(O)CCN2C[C@@H]3c4ccccc4CCc4cccc(c43)[C@@H]2C1 | Potency | 12.6 µM (active) |
| COc1cc2nc(N3CCN(C(=O)OCc4ccccc4)[C@H](C(=O)NC(C)(C)C)C3)nc(N)c2cc1OC | Potency | 12.6 µM (active) |
| O=S(=O)(NCCNC/C=C\c1ccc(Br)cc1)c1cccc2cnccc12 | Potency | 10 µM (active) |

// switching to the query compound
Q. What value of Potency has been reported for the following compound? CC(C)[C@H]1C(=O)C(C(N)=O)=C(O)[C@]2(O)C(=O)C3=C(O)c4c(O)ccc(N(C)C)c4C[C@H]3C[C@@H]12
A. 2.51 µM (active)

====

# Test Summary: Stat Signaling Pathway (AID 446);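 note: ME-180 cervical cancer cells given 40 pM IL-6 alongside compound; SIE-controlled beta-lactamase reporter measured as 460/530 nm FRET emission ratio; % is set by controls: 0 for no effect and ±100 for the full control effect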
# Assay Conditions: ME-180 (cervical carcinoma) SIE beta-lactamase reporter, IL-6 stimulated, 5 h; at 38 µM (top of the series)
Records with an inconclusive call do not appear.
Assay Endpoint: activity, negative = inhibition (%)
Answers are plain numbers, in %.

Example results:
| Smiles Record | Quantity Unit | Numeric Result |
| --- | --- | --- |
| Cc1nnc(SCC2=C(C(=O)O)N3C(=O)[C@@H](NC(=O)Cn4cnnn4)[C@@H]3SC2)s1 | % | -5.18 |
| CC(C)C[C@H]1C(=O)N2CCC[C@@H]2[C@]2(O)O[C@](NC(=O)[C@H]3C=C4c5cccc6[nH]c(Br)c(c56)C[C@H]4N(C)C3)(C(C)C)C(=O)N12 | % | -18.7 |
| CC(=O)N1CCN(c2ccc(OC[C@@H]3CO[C@@](Cn4ccnc4)(c4ccc(Cl)cc4Cl)O3)cc2)CC1 | % | -11.9 |

// switching to the query compound
Q. What value of activity, negative = inhibition has been reported for the following compound? CC(C)(C)c1ccc([C@@H](O)CCCN2CCC(C(O)(c3ccccc3)c3ccccc3)CC2)cc1
A. 9.55
